Tested on: AsPC-1 cells
Assay: MTT cellular proliferation assay, AsPC-1 pancreatic adenocarcinoma cells
Format: cell-based, human
Details: IC50 of MRC-5 cells/IC50 of AsPC-1 cells, 72 h/37 °C
Protocol: The anti-proliferative activity of Dp4e4mT relative to its complexes with Fe(III), Co(III), Ni(II), Cu(II), Zn(II), Ga(III), and Pd(II) was examined over incubation periods of 24-, 48-, and 72 h/37 °C (Table 2). […] Cellular proliferation was evaluated through the established 3-(4,5-dimethylthiazol-2-yl)-2,5-diphenyltetrazolium bromide (MTT) proliferation assay, validated by viable cell counts.12 […]
property-label: Therapeutic index AsPC-1
Reply: number alone, nothing else.

A selection of reference data follows.
The compound CCN(C)C([S-])=NN=C(c1ccccn1)c1ccccn1.CCN(C)C([S-])=NN=C(c1ccccn1)c1ccccn1.[Fe+3] [[Fe(Dp4e4mT)2]^+] showed Therapeutic index AsPC-1 equal to 9

The compound CC(=O)N(O)CCCCCNC(=O)CCC(=O)N(O)CCCCCNC(=O)CCC(=O)N(O)CCCCCN [DFO, desferrioxamine, reference compound] showed Therapeutic index AsPC-1 equal to 9

The compound CCN(C)C([S-])=NN=C(c1ccccn1)c1ccccn1.[Cl-].[Cu+2] [[Cu(Dp4e4mT)Cl]] showed Therapeutic index AsPC-1 equal to 130

The compound CCN(C)C([S-])=NN=C(c1ccccn1)c1ccccn1.CCN(C)C([S-])=NN=C(c1ccccn1)c1ccccn1.[Zn+2] [[Zn(Dp4e4mT)2]] showed Therapeutic index AsPC-1 equal to 125

The compound CCN(C)C([S-])=NN=C(c1ccccn1)c1ccccn1.[Cl-].[Pd+2] [[Pd(Dp4e4mT)Cl]] showed Therapeutic index AsPC-1 equal to 3

Next:
The compound CN(C)C(=S)NN=C(c1ccccn1)c1ccccn1 [Dp44mT, reference compound] showed Therapeutic index AsPC-1 equal to 71

The compound "CCN(C)C(=S)NN=C(c1ccccn1)c1ccccn1" showed Therapeutic index AsPC-1 equal to 120
